Values from patent US20220125947A1

# TARGET DESC: Vg9/Vd1 T cell receptor expressed on SKW3 cells (UniProt Q99603)
# Sequence (Q99603 21-122): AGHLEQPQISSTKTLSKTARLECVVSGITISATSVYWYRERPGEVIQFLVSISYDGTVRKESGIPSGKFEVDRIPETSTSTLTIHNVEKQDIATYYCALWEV
# TEST: flow cytometry, dose-response binding at 37 C, SKW3 cells expressing Vg9/Vd1
MEASURED QUANTITY: Max. Activity (fold over background)
Number only, please.

binder="VG9B114 (antibody, human IgG1, kappa, V domains shown) VH: EVQLVESGGDLVQPGGSLRLSCAASGFTFSRYDMHWVRQATGKGLEWVSAIGSAGDTYYPGSVKGRFTISRENAKNSLYLQMNSLRAGDTAVYYCARGKWELRDAFDIWGQGTMVTVSS VL: DIVMTQSPSFLSASVGDRVTITCRASQGIHSYLAWYQQKPGKAPKLLIYVASTLQSGVPSRFSGSRSGTEFTLTISSLQPEDFATYYCQQLNSYPYTFGQGTKLEIKR" value_reported=8.38

Now consider a different binder.
Please give the documented Max. Activity (fold over background) of VG9B81 (antibody, human IgG1, kappa, V domains shown) VH: QVQLQESGPGLVKPSETLSLTCSVSGGSINTYYWSWFRQPAGKGLELIGRIYTSDNTNYNPSLKSRVTMSVDTSKNQFSLKLSSVTAADTAVYYCARYNWNYWYFDLWGRGTLVTVSS VL: DIQMTQSPSFLSASVRDRVNITCRASQGISSYLAWYQQKPGKAPKLLIYTASTLQSGVPSRFSGSGSGTEFTLTISSLQPEDFATYYCQHLNSYPYTFGQGTKVEIKR
1.17
